# Tested on: Saccharomyces cerevisiae
# test.protocol: protein stability index of tFT-peptide fusion (C-terminal peptide) (PSI (0-1 scale)); higher = more stable (slower turnover)
# measurement.context: genetic background: cdc34-1; temperature: 37 C
Could you label it rule met if measured protein stability index is 0.5 or higher, and rule not met otherwise?

{"macromolecule.sequence": "LGSCSLIYRKFS", "discrete.label": "rule met"}
{"macromolecule.sequence": "HWVRLSSLAFVS", "discrete.label": "rule not met"}
{"macromolecule.sequence": "VICSLFRYIMRL", "discrete.label": "rule not met"}
{"macromolecule.sequence": "SVSQTSILDSRL", "discrete.label": "rule met"}
{"macromolecule.sequence": "FPFPLSSFLLLY", "discrete.label": "rule not met"}
{"macromolecule.sequence": "VVGILVLASWDL", "discrete.label": "rule not met"}
{"macromolecule.sequence": "RSNLSKSWHRIG", "discrete.label": "rule met"}
{"macromolecule.sequence": "YRHYGVARKKLA", "discrete.label": "rule met"}
{"macromolecule.sequence": "RRMGLRLFLLWM", "discrete.label": "rule met"}
{"macromolecule.sequence": "RSFSKRSFMFLC", "discrete.label": "rule met"}
{"macromolecule.sequence": "FYLSSCFLFLRF", "discrete.label": "rule not met"}
{"macromolecule.sequence": "CFCLFVFFISSC", "discrete.label": "rule not met"}
{"macromolecule.sequence": "LPALPFPIPTFA", "discrete.label": "rule not met"}
{"macromolecule.sequence": "SVFSFCLCVGVV", "discrete.label": "rule not met"}
{"macromolecule.sequence": "FYIRFYVYSWLF", "discrete.label": "rule not met"}
{"macromolecule.sequence": "PALVVALLASVL", "discrete.label": "rule met"}
{"macromolecule.sequence": "VCDPWVFIRCLV", "discrete.label": "rule not met"}
{"macromolecule.sequence": "QPTGYFKLIIIK", "discrete.label": "rule not met"}
{"macromolecule.sequence": "LYVQSVCFSVPR", "discrete.label": "rule not met"}

====

# System: Saccharomyces cerevisiae
# test.protocol: protein stability index of tFT-peptide fusion (C-terminal peptide) (PSI (0-1 scale)); higher = more stable (slower turnover)
# measurement.context: genetic background: wild type; temperature: 30 C
Could you label it class 1 if measured protein stability index is 0.7 or higher, and class 0 otherwise?

{"macromolecule.sequence": "FQTITGEEKEKK [ECM16 C-terminal 12 aa]", "subject.of.test": "Saccharomyces cerevisiae", "discrete.label": "class 1"}
{"macromolecule.sequence": "EVHALNRDHLVA [YHR138C C-terminal 12 aa]", "subject.of.test": "Saccharomyces cerevisiae", "discrete.label": "class 0"}
{"macromolecule.sequence": "FAEYNRLSAIPV [LAM1 C-terminal 12 aa]", "subject.of.test": "Saccharomyces cerevisiae", "discrete.label": "class 0"}
{"macromolecule.sequence": "KTQDYGKKYNSG [SIZ1 C-terminal 12 aa]", "subject.of.test": "Saccharomyces cerevisiae", "discrete.label": "class 1"}
{"macromolecule.sequence": "SQVLPESERRLD [ATG22 C-terminal 12 aa]", "subject.of.test": "Saccharomyces cerevisiae", "discrete.label": "class 0"}
{"macromolecule.sequence": "APAEQTQGEPTK [BMH2 C-terminal 12 aa]", "subject.of.test": "Saccharomyces cerevisiae", "discrete.label": "class 0"}
{"macromolecule.sequence": "DIFDPVDFVSFF [OAF3 C-terminal 12 aa]", "subject.of.test": "Saccharomyces cerevisiae", "discrete.label": "class 1"}
{"macromolecule.sequence": "QFKQILENYRPT [VPS38 C-terminal 12 aa]", "subject.of.test": "Saccharomyces cerevisiae", "discrete.label": "class 1"}
{"macromolecule.sequence": "SLPLVSLFIVLA [YJL064W C-terminal 12 aa]", "subject.of.test": "Saccharomyces cerevisiae", "discrete.label": "class 0"}
{"macromolecule.sequence": "LSIAAGVGFALV [GAS1 C-terminal 12 aa]", "subject.of.test": "Saccharomyces cerevisiae", "discrete.label": "class 0"}
{"macromolecule.sequence": "FSTWDIADKQEA [PMT2 C-terminal 12 aa]", "subject.of.test": "Saccharomyces cerevisiae", "discrete.label": "class 1"}
{"macromolecule.sequence": "VLLTILLFIQAY [SPO19 C-terminal 12 aa]", "subject.of.test": "Saccharomyces cerevisiae", "discrete.label": "class 0"}
{"macromolecule.sequence": "DDDDDDDGQITA [YHR131C C-terminal 12 aa]", "subject.of.test": "Saccharomyces cerevisiae", "discrete.label": "class 0"}
{"macromolecule.sequence": "AKCGEWTPELSS [CPR2 C-terminal 12 aa]", "subject.of.test": "Saccharomyces cerevisiae", "discrete.label": "class 1"}
{"macromolecule.sequence": "SFFIYVNFTVYF [YCR001W C-terminal 12 aa]", "subject.of.test": "Saccharomyces cerevisiae", "discrete.label": "class 0"}
{"macromolecule.sequence": "NSKVMNIKALDH [MRPL10 C-terminal 12 aa]", "subject.of.test": "Saccharomyces cerevisiae", "discrete.label": "class 0"}
{"macromolecule.sequence": "GLLLPLCHRKRS [YOR012W C-terminal 12 aa]", "subject.of.test": "Saccharomyces cerevisiae", "discrete.label": "class 0"}
{"macromolecule.sequence": "SPYDWFRNTETP [DER1 C-terminal 12 aa]", "subject.of.test": "Saccharomyces cerevisiae", "discrete.label": "class 1"}
{"macromolecule.sequence": "SFHKEFFDQYRD [ALT1 C-terminal 12 aa]", "subject.of.test": "Saccharomyces cerevisiae", "discrete.label": "class 1"}
{"macromolecule.sequence": "LAFIAACKKYIY [IKS1 C-terminal 12 aa]", "subject.of.test": "Saccharomyces cerevisiae", "discrete.label": "class 0"}
{"macromolecule.sequence": "NNYNLWFRLSSS [ECL1 C-terminal 12 aa]", "subject.of.test": "Saccharomyces cerevisiae", "discrete.label": "class 0"}
{"macromolecule.sequence": "DRVGEVFAKLFG [NNR2 C-terminal 12 aa]", "subject.of.test": "Saccharomyces cerevisiae", "discrete.label": "class 1"}
{"macromolecule.sequence": "KRRSDSKESRKL [YPR145C-A C-terminal 12 aa]", "subject.of.test": "Saccharomyces cerevisiae", "discrete.label": "class 0"}
{"macromolecule.sequence": "LSRYTRVLLMFM [YBR178W C-terminal 12 aa]", "subject.of.test": "Saccharomyces cerevisiae", "discrete.label": "class 0"}
{"macromolecule.sequence": "QKLHAIDGEDEL [GPI17 C-terminal 12 aa]", "subject.of.test": "Saccharomyces cerevisiae", "discrete.label": "class 0"}
{"macromolecule.sequence": "WHKHKTSSDKNI [YDR261C-D C-terminal 12 aa]", "subject.of.test": "Saccharomyces cerevisiae", "discrete.label": "class 1"}
{"macromolecule.sequence": "LRIVACNSKKSE [TOA2 C-terminal 12 aa]", "subject.of.test": "Saccharomyces cerevisiae", "discrete.label": "class 0"}
{"macromolecule.sequence": "KGATIKEIVLND [ATH1 C-terminal 12 aa]", "subject.of.test": "Saccharomyces cerevisiae", "discrete.label": "class 0"}
{"macromolecule.sequence": "NILVIVYELLLG [YOS1 C-terminal 12 aa]", "subject.of.test": "Saccharomyces cerevisiae", "discrete.label": "class 0"}
